The measurements presented in this section are drawn from patent US20230118024A1.

Target: T1, HLA-DQ2.5/alpha 1b gliadin peptide complex on Ba/F3 cells (human; wheat)
T1 construct: also called Ba/F3-HLA-DQ2.5/alpha 1b gliadin peptide
Test: FACS
quantity: FIG. 30 FACS value (IC17=0, DQN0139bb=100)

- binder: "DQN0282ff (antibody, human IgG1, kappa, V domains shown, also called DQN0282Hf; DQN0282Lf) VH: QSVEESGGRLVTPGTPLTLSCKASGFDFSIYYMSWVRQAPGKGLEWIGVINSGGGVTWYASWVKGRFTISKTSTTVDLKITSPTTEDTATYFCARLGDSNHYDLWGPGTLVTVSS VL: AYDMTQTPSSVSAAVGGTVTIKCQASETISSYLAWYQQKPGQRPQLLIYDASNLASGVPSRFKGSGSGTEFTLTISDLECADAATYYCQTHYYITSTTFGGGTKVEIKR"
  quantitative_result: 20.9
- binder: "DQN0303hh (antibody, human IgG1, kappa, V domains shown, also called DQN0303Lh) VH: QQHLEESGGGLVKPGGTLTLTCTASGIDFSSYYYMCWVRQAPGKGLEWIACIYTGDGSTYYASWVNGRFTISRSTSLNTVTLQLNGLAAADTATYFCARSYGASSAIGYFNLWGPGTLVTVSS VL: DVVMTQTPSSKSAAVGGTVTIKCQASQNIYSNLAWYQQKPGQRPKLLIYEASTLASGVPSRFRGSGSGTEFTLTISDLECDDAATYYCQNYYYTSSNDFYTFGGGTKVEIKR"
  quantitative_result: 41.5
